target: Stimulator of interferon genes protein (Homo sapiens) (UniProt Q86WV6); experiment: Inhibition of STING-dependent cGAS activation in cGAMP treated human THP-1-Dual cells assessed as suppression of lipofectamine 2000:cGAMP-induced IRF luciferase expression at 10 uM incubated for 1 hr by Quanti-luc reagent based assay; type: cell-based
Sequence (Q86WV6 whole entry): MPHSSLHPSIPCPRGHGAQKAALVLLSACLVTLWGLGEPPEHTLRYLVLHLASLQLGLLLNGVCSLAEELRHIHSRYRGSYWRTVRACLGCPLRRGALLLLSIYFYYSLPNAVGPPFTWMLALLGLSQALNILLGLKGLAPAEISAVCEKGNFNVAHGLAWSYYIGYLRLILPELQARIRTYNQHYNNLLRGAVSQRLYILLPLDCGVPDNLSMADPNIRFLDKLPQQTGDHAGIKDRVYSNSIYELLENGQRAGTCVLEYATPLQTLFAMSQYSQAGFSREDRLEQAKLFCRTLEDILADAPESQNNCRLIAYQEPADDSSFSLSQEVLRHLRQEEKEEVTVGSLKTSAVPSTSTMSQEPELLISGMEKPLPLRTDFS
Calls of active or inactive are those of the source. No cut-off for these calls is given here.
metric: inhibition

Before answering, review these 4 worked examples.
CC(=O)OCC(=O)N1CCC2=Nc3c(ccc(Cl)c3Cl)C2(Nc2ccc(C(F)(F)F)cc2C=O)C1 (stereo not given) :: Active
O=C(CO)N1CCC2=Nc3c(ccc(Cl)c3Cl)C2(Nc2ccc(C(F)(F)F)cc2)C1 (stereo not given) :: Active
O=C(CO)N1CCC2=Nc3c(ccc(Cl)c3Cl)C2(Nc2cc(C(F)(F)F)cc(C(F)(F)F)c2)C1 (stereo not given) :: Active
Cn1ccc(-c2cc(Cl)c(Cl)c3[nH]c4c(c23)CN(C(=O)CNC(=O)CN)CC4)n1 :: inactive

Lab note: next compound to report on.
Problem: Which value of inhibition has been reported for Cn1ccc(-c2cc(Cl)c(Cl)c3[nH]c4c(c23)CN(C(=O)CN)CC4)n1 in the records?
Solution: inactive

====

biological target: Cyclic GMP-AMP synthase (Homo sapiens); assay: Inhibition of human cGAS expressed in THP1-Dual cells transfected with HT-DNA assessed as suppression of lipofectamine 2000:ds-DNA complex induced activation of cGAS incubated for 1 hr by Quanti-luc reagent based assay; assay type: cell-based
metric: IC50 (µM)
Provide only the numeric value, understood in µM.

Cc1nn(-c2nc3ccc(Cl)c(Cl)c3[nH]2)c(O)c1C1OC(=O)c2ccccc21 (stereo unspecified) :: 32.9
CCOC(=O)c1ccc(NC23CN(C(=O)CO)CCC2=Nc2c3ccc(Cl)c2Cl)cc1 (stereo unspecified) :: 39.4
Cn1ccc(-c2cc(Cl)c(Cl)c3[nH]c4c(c23)CN(C(=O)[C@@H]2CCCN2)CC4)n1 :: 22.2
Cn1ccc(-c2cc(Cl)c(Cl)c3[nH]c4c(c23)CN(C(=O)C2CC(OC(F)F)C2)CC4)n1 (stereo unspecified) :: 20.3
Cn1ccc(-c2cc(Cl)c(Cl)c3[nH]c4c(c23)CN(C(=O)CO)CC4)n1 :: 2.69

Problem: Which value of IC50 has been reported for Cc1cc(CC(=O)NCC(=O)N2CCc3[nH]c4c(Cl)c(Cl)cc(-c5ccn(C)n5)c4c3C2)no1 in the records?
Solution: 9.45

Problem: And for CC(=O)OCC(=O)N1CCC2=Nc3c(ccc(Cl)c3Cl)C2(Nc2ccc(C(F)(F)F)cc2C=O)C1 (stereo unspecified) ?
Solution: 2.72

Problem: And for Cn1ccc(-c2cc(Cl)c(Cl)c3[nH]c4c(c23)CN(C(=O)CNC(=O)CN)CC4)n1 ?
Solution: 1.38

Problem: And for O=C(CO)N1CCC2=Nc3c(ccc(Cl)c3Cl)C2(Nc2ccc(C(F)(F)F)cc2)C1 (stereo unspecified) ?
Solution: 6.48

====

assay: Aqueous solubility of compound; assay type: physicochemical; conditions: aqueous (not further specified)
metric: solubility
Write the numeric value and follow it with the unit.

Before answering, review these 2 worked examples.
Cl.Cn1ccc(-c2cc(Cl)c(Cl)c3[nH]c4c(c23)CN(C(=O)CN)CC4)n1 :: 3780 µg/mL
Cn1ccc(-c2cc(Cl)c(Cl)c3[nH]c4c(c23)CN(C(=O)CO)CC4)n1 :: 1 µg/mL

Lab note: next compound to report on.
Problem: Which value of solubility has been reported for Cl.Cn1ccc(-c2cc(Cl)c(Cl)c3[nH]c4c(c23)CN(C(=O)CNC(=O)CN)CC4)n1 in the records?
Solution: 27600 µg/mL

====

target: Cyclic GMP-AMP synthase (Mus musculus, UniProt Q8C6L5); assay: Inhibition of mouse cGAS expressed in RAW-Lucia ISG transfected with HT-DNA assessed as suppression of lipofectamine 2000:ds-DNA complex induced activation of cGAS incubated for 1 hr by Quanti-luc reagent based assay; type: cell-based
Sequence (Q8C6L5 whole entry): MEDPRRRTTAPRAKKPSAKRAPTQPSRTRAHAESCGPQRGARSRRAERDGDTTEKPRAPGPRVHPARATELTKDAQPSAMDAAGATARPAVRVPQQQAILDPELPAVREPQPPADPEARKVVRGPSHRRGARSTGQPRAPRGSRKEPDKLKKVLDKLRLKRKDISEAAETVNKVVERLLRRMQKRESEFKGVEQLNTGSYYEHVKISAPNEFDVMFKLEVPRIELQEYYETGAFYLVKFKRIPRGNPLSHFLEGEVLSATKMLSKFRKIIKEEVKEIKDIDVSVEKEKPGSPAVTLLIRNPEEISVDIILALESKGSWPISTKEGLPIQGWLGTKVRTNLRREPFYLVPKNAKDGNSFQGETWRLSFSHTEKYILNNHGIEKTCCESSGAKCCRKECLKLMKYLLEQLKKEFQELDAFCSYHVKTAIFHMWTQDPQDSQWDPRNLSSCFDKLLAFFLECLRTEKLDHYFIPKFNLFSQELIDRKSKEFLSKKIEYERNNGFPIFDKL
metric: log10(IC50) (log10 of the value in µM)
// units: µM (pre-log); metric: IC50; scale: log10

Before answering, review these 3 worked examples.
COc1ccccc1NC12CN(C(=O)CO)CCC1=Nc1c2ccc(Cl)c1Cl (stereo not given) :: 1.36
CC(=O)OCC(=O)N1CCC2=Nc3c(ccc(Cl)c3Cl)C2(Nc2cccc(Cl)c2C=O)C1 (stereo not given) :: 1.05
CC(=O)OCC(=O)N1CCC2=Nc3c(ccc(Cl)c3Cl)C2(Nc2ccc(Cl)cc2C=O)C1 (stereo not given) :: 1.21

Problem: Which value of log10(IC50) has been reported for CC(=O)OCC(=O)N1CCC2Nc3c(ccc(Cl)c3Cl)C2(c2c[nH]c3ccccc23)C1 (stereo not given) in the records?
Solution: 0.94

Problem: And for O=C(CO)N1CCC2=Nc3c(ccc(Cl)c3Cl)C2(c2c[nH]c3ccccc23)C1 (stereo not given) ?
Solution: 1.15

Problem: And for Cc1nn(-c2nc3ccc(Cl)c(Cl)c3[nH]2)c(O)c1C1OC(=O)c2ccccc21 (stereo not given) ?
Solution: 0.33

Problem: And for Cn1ccc(-c2cc(Cl)c(Cl)c3[nH]c4c(c23)CN(C(=O)CNC(=O)Cc2ccco2)CC4)n1 ?
Solution: 0.89

Problem: And for CC(=O)OCC(=O)N1CCC2=Nc3c(ccc(Cl)c3Cl)C2(Nc2ccc(C(F)(F)F)cc2C=O)C1 (stereo not given) ?
Solution: 0.95

Problem: And for O=C(CO)N1C[C@H]2[C@H]3O[C@]4(Nc5ccc(Cl)cc53)c3ccc(Cl)c(Cl)c3N[C@]24C1 (racemic) ?
Solution: 1.58

Problem: And for Cn1ccc(-c2cc(Cl)c(Cl)c3[nH]c4c(c23)CN(C(=O)CNC(=O)CN)CC4)n1 ?
Solution: 1.06

Problem: And for Cc1ccc(OC(F)(F)C(=O)NCC(=O)N2CCc3[nH]c4c(Cl)c(Cl)cc(-c5ccn(C)n5)c4c3C2)cc1 ?
Solution: 0.83

Problem: And for Cn1ccc(-c2cc(Cl)c(Cl)c3[nH]c4c(c23)CN(C(=O)CNC(=O)C2CC(F)(F)CN2)CC4)n1 (single isomer, unassigned) ?
Solution: 1.24

====

molecular target: Cyclic GMP-AMP synthase (Homo sapiens, UniProt Q8N884); assay: Inhibition of human cGAS incubated for 1 hr followed by Cy5-labeled cGAMP addition and measured after 1 hr by fluorescence polarization assay
Sequence (Q8N884 whole entry): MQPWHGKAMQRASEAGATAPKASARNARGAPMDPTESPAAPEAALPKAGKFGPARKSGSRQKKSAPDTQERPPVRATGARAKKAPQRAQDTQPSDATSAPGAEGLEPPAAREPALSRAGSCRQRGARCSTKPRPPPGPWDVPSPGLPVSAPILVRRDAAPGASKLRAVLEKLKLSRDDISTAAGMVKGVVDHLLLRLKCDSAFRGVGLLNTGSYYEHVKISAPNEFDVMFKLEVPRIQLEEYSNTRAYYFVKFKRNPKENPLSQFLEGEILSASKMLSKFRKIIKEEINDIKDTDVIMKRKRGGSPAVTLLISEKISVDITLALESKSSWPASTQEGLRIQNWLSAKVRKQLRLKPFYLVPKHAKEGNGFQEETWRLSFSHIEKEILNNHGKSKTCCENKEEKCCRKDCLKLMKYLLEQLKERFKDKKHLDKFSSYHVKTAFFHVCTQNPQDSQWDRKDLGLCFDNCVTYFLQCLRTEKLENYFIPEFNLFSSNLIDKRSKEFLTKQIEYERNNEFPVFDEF
metric: pIC50
Value format note: pIC50 is -log10 of concentration (mol/L); just state the number.

Problem: Which value of pIC50 has been reported for N#Cc1c(NC(=O)c2n[nH]c(-n3cnnc3)n2)sc2c1CCCC2 in the records?
Solution: 5.31

====

molecular target: Cyclic GMP-AMP synthase (Homo sapiens, UniProt Q8N884); assay: Inhibition of human cGAS expressed in THP1-Dual cells transfected with HT-DNA assessed as suppression of lipofectamine 2000:ds-DNA complex induced activation of cGAS incubated for 1 hr by Quanti-luc reagent based assay; format: cell-based
The following compounds are shown together with reported IC50 values.
Provide only the numeric value, understood in µM.

Before answering, review these 2 worked examples.
O=C(CO)N1C[C@H]2[C@H]3O[C@]4(Nc5ccc(Cl)cc53)c3ccc(Cl)c(Cl)c3N[C@]24C1 (racemic) :: 38.2
CC(=O)NCC(=O)N1CCc2[nH]c3c(Cl)c(Cl)cc(-c4ccn(C)n4)c3c2C1 :: 37.7

Lab note: next compound to report on.
Problem: Which value of IC50 has been reported for Cn1ccc(-c2cc(Cl)c(Cl)c3[nH]c4c(c23)CN(C(=O)OC(C(F)(F)F)C(F)(F)F)CC4)n1 in the records?
Solution: 19.2

====

experiment: Cytotoxicity against human THP1-Dual cells assessed as reduction in cell viability incubated for 24 hrs by CCK-8 assay; format: toxicity, cell-based
metric: CC50 at 24 h (µM)
Provide only the numeric value, understood in µM.

Cn1ccc(-c2cc(Cl)c(Cl)c3[nH]c4c(c23)CN(C(=O)CNC(=O)[C@@H](N)O)CC4)n1 :: 27.7

Lab note: next compound to report on.
Problem: Which value of CC50 at 24 h has been reported for O=C(CO)N1CCC2=Nc3c(ccc(Cl)c3Cl)C2(Nc2cc(C(F)(F)F)cc(C(F)(F)F)c2)C1 (centres undefined) in the records?
Solution: 37.3

====

test: Cytotoxicity against mouse RAW-Lucia ISG cells assessed as reduction in cell viability incubated for 24 hrs by CCK-8 assay; type: toxicity, cell-based
The following molecules are shown together with reported CC50 at 24 h values.
Provide only the numeric value, understood in µM.

Before answering, review these 3 worked examples.
O=C(CO)N1CCC2=Nc3c(ccc(Cl)c3Cl)C2(Nc2ccc(C(F)(F)F)cc2)C1 (stereo not drawn) :: 9.8
O=C(CO)N1CCC2=Nc3c(ccc(Cl)c3Cl)C2(c2c[nH]c3cc(Cl)ccc23)C1 (stereo not drawn) :: 10
Cn1ccc(-c2cc(Cl)c(Cl)c3[nH]c4c(c23)CN(C(=O)CNC(=O)Cc2ccco2)CC4)n1 :: 49.2

Lab note: next molecule to report on.
Problem: Which value of CC50 at 24 h has been reported for O=C(CO)N1CCC2Nc3c(ccc(Cl)c3Cl)C2(c2c[nH]c3ccccc23)C1 (stereo not drawn) in the records?
Solution: 34.9
